test system: LOC_OS06G16330-cb003; assay: thermal shift delta Tm vs DMSO control; higher = stronger stabilization (binding); settings: 12.5 µM; protein concentration 2 µM;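 also: purified Escherichia coli-expressed rice kinase domain construct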
Sequence (as listed by the source): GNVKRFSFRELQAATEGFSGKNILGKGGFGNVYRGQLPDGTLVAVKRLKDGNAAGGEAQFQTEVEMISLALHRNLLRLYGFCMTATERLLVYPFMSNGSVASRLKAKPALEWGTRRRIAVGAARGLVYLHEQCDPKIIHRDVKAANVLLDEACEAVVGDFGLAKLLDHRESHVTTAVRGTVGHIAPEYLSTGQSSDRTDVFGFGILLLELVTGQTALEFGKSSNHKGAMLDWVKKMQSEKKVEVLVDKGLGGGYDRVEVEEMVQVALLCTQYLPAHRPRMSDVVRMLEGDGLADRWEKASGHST
Give yes (1) when the value for thermal shift delta Tm is at least 0.6 °C. Give no (0) when it is less.

>>> print(df.to_string())
                                smiles_data           test_target  class_name
0   COc1cc(OC)c(C=C2C(=O)Nc3ccccc32)c(OC)c1  LOC_OS06G16330-cb003      no (0)
1  CNC(=O)c1cc(Oc2ccc(NC(=O)Nc3cc(C(C)(C)C)nn3-c3ccc4ncccc4c3)c(F)c2)ccn1  LOC_OS06G16330-cb003     yes (1)
2   CCn1c(=O)c(-c2cc[nH]n2)cc2c(C)nc(N)nc21  LOC_OS06G16330-cb003     yes (1)
3  O=S(=O)(NCCNC/C=C/c1ccc(Br)cc1)c1cccc2cnccc12  LOC_OS06G16330-cb003     yes (1)
4  Cc1nc(Nc2n[nH]c3c2CN(C(=O)N[C@H](CN(C)C)c2ccccc2)C3(C)C)c2sccc2n1  LOC_OS06G16330-cb003     yes (1)
5  Oc1cccc(-c2nc(N3CCOCC3)c3oc4ncccc4c3n2)c1  LOC_OS06G16330-cb003      no (0)
6  CS(=O)(=O)N1CCN(Cc2cc3nc(-c4cccc5[nH]ncc45)nc(N4CCOCC4)c3s2)CC1  LOC_OS06G16330-cb003      no (0)
7  Cc1cnc(Nc2ccc(N3CCN(C)CC3)cc2)nc1Nc1cccc(S(=O)(=O)NC(C)(C)C)c1  LOC_OS06G16330-cb003     yes (1)
8  C=CC(=O)Nc1cccc(C)c1Nc1ncc2cc(-c3c(Cl)c(OC)cc(OC)c3Cl)ccc2n1  LOC_OS06G16330-cb003      no (0)
9  COc1cc(Nc2ncc3c(n2)-c2ccc(Cl)cc2C(c2c(F)cccc2OC)=NC3)ccc1C(=O)O  LOC_OS06G16330-cb003     yes (1)

Would you say O=C1CCc2c(Oc3ccc4c(c3)[C@@H]3[C@H](O4)[C@H]3c3nc4cc(C(F)(F)F)ccc4[nH]3)ccnc2N1 shows thermal shift delta Tm at minimum 0.6 °C?
yes (1)

Item c1cncc(CN2CCC(n3ncc4c(N5CCOCC5)nc(-c5ccc6[nH]ccc6c5)nc43)CC2)c1 with thermal shift delta Tm of 0.6 °C or above?
no (0)

Check if thermal shift delta Tm >= 0.6 °C (inclusive). Item: CNC(=O)Nc1ccc(-c2nc(N3CC4CCC(C3)O4)c3cnn(C4CCC5(CC4)OCCO5)c3n2)cc1
no (0)

Entry Nc1ncc(-c2ccnc(Nc3ccncc3)n2)c(CC2CC2)n1 : is its thermal shift delta Tm no less than 0.6 °C?
yes (1)

Kindly determine if thermal shift delta Tm recorded for NC(=O)c1ccc2nc(-c3ccc(Oc4ccc(Cl)cc4)cc3)[nH]c2c1 is above or exactly 0.6 °C.
no (0)

# bool: thermal shift delta Tm of CCOc1cc2ncc(C#N)c(Nc3ccc(OCc4ccccn4)c(Cl)c3)c2cc1NC(=O)/C=C/CN(C)C >= 0.6 °C
no (0)

Given NC(=O)c1ccc(N(C(N)=O)c2c(F)cccc2F)nc1-c1ccc(F)cc1F , state whether its thermal shift delta Tm is at least 0.6 °C.
no (0)

* * *

tested on: LOC_OS01G10900-cb004; test: thermal shift delta Tm vs DMSO control; higher = stronger stabilization (binding); settings: 12.5 µM; protein concentration 2 µM
endpoint.name: thermal shift delta Tm (°C)
The figure you give is taken to be in °C; do not add the unit.

Some solved entries appear below for comparison.
In [3]: df
Out[3]:
                                   compound           endpoint_name  units_symbol  measured_value
0  O=C(Nc1ccc(OC(F)(F)F)cc1)c1sccc1NCc1ccnc2ccccc12  thermal shift delta Tm            °C            0.51
1  Cn1cnc(N)c2ncnc1-2 [3-Methyladenine (3-MA)]  thermal shift delta Tm            °C            0.17

Can you look up the measured thermal shift delta Tm of O=C1Cc2c([nH]c3ccc(Br)cc23)-c2ccccc2N1 [Kenpaullone] for me?
3.23

Item CCOc1cc(N2CCC(O)CC2)ccc1Nc1ncc2c(n1)N(C)c1ccccc1C(=O)N2C has what recorded thermal shift delta Tm?
0.7

Name the recorded thermal shift delta Tm for Nc1ccc(C(=O)Nc2cccc(-c3nc(N4CCOCC4)c4oc5ncccc5c4n3)c2)cn1 .
1.27

Would you kindly share the measured thermal shift delta Tm for CC(C)c1cnn2c(NCc3ccccc3)cc(NCCCCCCN)nc12 ?
0.11

Could you tell me which thermal shift delta Tm is on file for CCOc1cc(C(=O)N2CCC(N3CCN(C)CC3)CC2)ccc1Nc1ncc2c(n1)N(C1CCCC1)c1ccccc1C(=O)N2C ?
0.01

* * *

Known thermal shift delta Tm of a selection of compounds
system: LOC_OS05G16824-cb004; assay: thermal shift delta Tm vs DMSO control; higher = stronger stabilization (binding); conditions: 12.5 µM; protein concentration 2 µM
Please respond with the number in °C and leave the unit unwritten.

Guide cases for thermal shift delta Tm, answers given:
>>> df
                                   compound  measured_value
0  Cn1cc(-c2ccc3c(c2)CCN3C(=O)Cc2cccc(C(F)(F)F)c2)c2c(N)ncnc21            1.91
1  CS(=O)(=O)N1CCc2c(-c3cnc(N)nc3)nc(N3CCOCC3)nc21             0.4
2  CC(C)n1ncnc1-c1cn2c(n1)-c1ccc(O[C@@H](C)C(N)=O)cc1OCC2           -0.54
3  COc1cc(F)c(F)c(Nc2ccc(I)cc2F)c1NS(=O)(=O)C1(C[C@H](O)CO)CC1 [Refametinib (RDEA119, Bay 86-9766)]           -0.08
4  CNC(=O)c1cc(Oc2ccc(NC(=O)Nc3cc(C(C)(C)C)nn3-c3ccc4ncccc4c3)c(F)c2)ccn1 [Rebastinib (DCC-2036)]            0.76

Sample CC#CC(=O)N1CCC[C@H]1c1nc(-c2ccc(C(=O)Nc3ccccn3)cc2)c2c(N)nccn12 [Acalabrutinib (ACP-196)] — what was its thermal shift delta Tm?
-2.72

Which thermal shift delta Tm value is on record for Oc1c(F)cc(-c2cnccc2-c2ccc(N3CCOCC3)cc2)cc1F ?
-0.48

Quick one: thermal shift delta Tm for CCN(C)S(=O)(=O)Nc1ccc(F)c(C(=O)c2c[nH]c3ncc(-c4cnc(C5CC5)nc4)cc23)c1F ?
1.58

I'd like to know its thermal shift delta Tm. The compound in question is CCc1nc(C(N)=O)c(Nc2ccc(N3CCC(N4CCN(C)CC4)CC3)c(OC)c2)nc1NC1CCOCC1 [Gilteritinib (ASP2215)]
9.44

* * *

Here the recorded thermal shift delta Tm is given for each entry.
tested on: LOC_OS04G41100-cb001; assay: thermal shift delta Tm vs DMSO control; higher = stronger stabilization (binding); details: 12.5 µM; protein concentration 2 µM
Sequence (as listed by the source): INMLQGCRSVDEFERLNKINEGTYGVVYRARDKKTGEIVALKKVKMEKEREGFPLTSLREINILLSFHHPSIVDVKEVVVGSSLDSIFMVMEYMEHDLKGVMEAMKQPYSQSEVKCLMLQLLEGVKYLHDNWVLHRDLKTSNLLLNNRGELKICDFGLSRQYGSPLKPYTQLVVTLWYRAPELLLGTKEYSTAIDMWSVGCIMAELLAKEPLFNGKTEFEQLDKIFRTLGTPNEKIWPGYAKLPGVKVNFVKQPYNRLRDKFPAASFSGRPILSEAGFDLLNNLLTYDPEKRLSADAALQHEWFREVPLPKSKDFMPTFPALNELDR
Counter-ions that a name gives are not always drawn.
# output: bare number, implied unit °C

Here is how some compounds turned out for thermal shift delta Tm.
compound	thermal shift delta Tm [°C]
CO[C@H]1C[C@@H]2CC[C@@H](C)[C@@](O)(O2)C(=O)C(=O)N2CCCC[C@H]2C(=O)O[C@H]([C@H](C)C[C@@H]2CC[C@@H](OC(=O)C(C)(CO)CO)[C@H](OC)C2)CC(=O)[C@H](C)/C=C(\C)[C@@H](O)[C@@H](OC)C(=O)[C@H](C)C[C@H](C)/C=C/C=C/C=C/1C	0.7
CNC(=O)c1ccccc1Sc1ccc2c(/C=C/c3ccccn3)n[nH]c2c1	0.65
COC(=O)c1ccc2c(c1)NC(=O)/C2=C(\Nc1ccc(N(C)C(=O)CN2CCN(C)CC2)cc1)c1ccccc1	0.7
CCCS(=O)(=O)Nc1ccc(F)c(C(=O)c2c[nH]c3ncc(-c4ccc(Cl)cc4)cc23)c1F	0.68
CS(=O)(=O)c1ccc(-c2cnc(N)c(C(=O)Nc3ccccc3)n2)cc1	0.38
Cc1cc(Nc2ncc(Cl)c(Nc3ccccc3S(=O)(=O)C(C)C)n2)c(OC(C)C)cc1C1CCNCC1	0.26
O=C(Nc1cccc(Cl)c1)Nc1ncc(CCNc2ncnc3ccsc23)s1 [SNS-314 Mesylate]	1.12
CC(C)(C)c1cc(/C=C(\C#N)C(N)=S)cc(C(C)(C)C)c1O	1.27

Which thermal shift delta Tm reading was recorded for the compound CN(C)C/C=C/C(=O)Nc1cc2c(Nc3ccc(F)c(Cl)c3)ncnc2cc1O[C@H]1CCOC1 [Afatinib (BIBW2992) Dimaleate] ?
0.45

Consider the compound shown here: O=c1cc(-c2cccc3c2Sc2ccccc2S3)oc(N2CCOCC2)c1 What is its recorded thermal shift delta Tm?
0.74

Name the reported thermal shift delta Tm value associated with the compound COc1ccc(/C=C/C(=O)C2(C(=O)/C=C/c3ccc(OC)c(OC)c3)CCCCC2)cc1OC
0.5

# query: thermal shift delta Tm of entry Cc1cnc(Nc2ccc(OCCN3CCCC3)cc2)nc1Nc1cccc(S(=O)(=O)NC(C)(C)C)c1
0.68

Report thermal shift delta Tm for COc1ccc(-c2cc3c(C)nc(N)nc3n([C@H]3CC[C@H](OCCO)CC3)c2=O)cn1 please.
0.32

From: the supplement of paper PMC9694430
